Tested on: peripheral blood mononuclear cells (PBMC), T cells
method_description: ELISpot assay, gamma-interferon release (SFC) after stimulation with a-synuclein epitope pools
Format: cell-based, human
stated_conditions: Patients Summary; PD patients; of donors tested (peptide)
recorded_metric: IFNg Peptide + (donors positive to the peptide)
Output spec: single numeric token, no unit.

3521.0022 (GSIAAATGF; listed as Homo sapiens) | 0
3521.0002 (PSEEGYQDY; listed as Homo sapiens) | 0

Okay, now this substance:
Lookup: What is its IFNg Peptide + (donors positive to the peptide) for peripheral blood mononuclear cells (PBMC), T cells? Entry: 3521.0043 (VFMKGLSKAK; listed as Homo sapiens)
Found: 0
